target: human full-lengt MKNK1 (Homo sapiens, UniProt Q9BUB5, T385D); construct: purchased Carna Biosciences 02-145; host or cells: insect cells (baculovirus expression system); assay: MKNK1 kinase assay (MKNK1 TR-FRET assay); assay type: biochemical; settings: ATP final conc. 10 μM, 15 min preincubation, 45 min reaction at 22° C.
Sequence (Q9BUB5 1-424 isoform Q9BUB5-2 T344D): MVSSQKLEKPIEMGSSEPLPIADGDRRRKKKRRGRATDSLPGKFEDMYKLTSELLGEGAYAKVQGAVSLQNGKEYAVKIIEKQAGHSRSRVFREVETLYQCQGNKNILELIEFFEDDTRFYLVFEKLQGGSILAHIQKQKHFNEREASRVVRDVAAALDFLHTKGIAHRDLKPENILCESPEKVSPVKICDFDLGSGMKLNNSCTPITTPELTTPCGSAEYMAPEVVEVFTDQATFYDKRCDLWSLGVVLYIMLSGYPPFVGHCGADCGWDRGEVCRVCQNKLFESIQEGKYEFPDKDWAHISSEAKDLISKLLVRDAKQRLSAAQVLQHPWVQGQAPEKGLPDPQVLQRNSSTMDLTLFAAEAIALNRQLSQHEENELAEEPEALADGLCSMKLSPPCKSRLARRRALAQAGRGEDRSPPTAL
pIC50: −log10 of the molar value.

>  <COMPOUND>
C[C@@H](N)COc1ccc2ncc(-c3cc4ncccc4o3)n2n1 [Example 17]

>  <pIC50>
7.17

$$$$
>  <COMPOUND>
CCOc1nccc2oc(-c3cnc4ccc(OC[C@H](C)N)nn34)cc12 [Example 32]

>  <pIC50>
7.85

$$$$
>  <COMPOUND>
C[C@@H](N)COc1ccc2ncc(-c3cc4cnccc4o3)n2n1 [Example 26]

>  <pIC50>
7.00

$$$$
>  <COMPOUND>
COc1nccc2oc(-c3cnc4ccc(OCC5(CN)COC5)nn34)cc12 [Example 27]

>  <pIC50>
6.82

$$$$
>  <COMPOUND>
COc1nccc2oc(-c3cnc4ccc(O[C@@H]5CC[C@H](N)C5)nn34)cc12 [Example 18]

>  <pIC50>
7.77

$$$$
>  <COMPOUND>
COc1nccc2oc(-c3cnc4ccc(O[C@H]5C[C@H](N)C5)nn34)cc12 [Example 2]

>  <pIC50>
8.52

$$$$
>  <COMPOUND>
C[C@H](N)COc1ccc2ncc(-c3cc4cnccc4o3)n2n1 [Example 20]

>  <pIC50>
7.19

$$$$
>  <COMPOUND>
COc1nccc2oc(-c3cnc4ccc(OCC(C)CN)nn34)cc12 (stereo not drawn) [Example 16]

>  <pIC50>
8.10

$$$$
>  <COMPOUND>
CC(C)(C)COc1nccc2oc(-c3cnc4ccc(O[C@H]5C[C@H](N)C5)nn34)cc12 [Example 24]

>  <pIC50>
8.52

$$$$

====

biological target: human full-lengt MKNK1 (Homo sapiens, UniProt Q9BUB5, T385D); test: MKNK1 kinase assay (MKNK1 TR-FRET assay); details: ATP final conc. 10 μM, 15 min preincubation, 45 min reaction at 22° C.
pIC50: −log10 of the molar value.

>  <COMPOUND>
CC(C)[C@H](N)COc1ccc2ncc(-c3cc4cnccc4o3)n2n1

>  <pIC50>
6.86

$$$$
>  <COMPOUND>
N[C@H]1C[C@H](Oc2ccc3ncc(-c4cc5ccncc5o4)n3n2)C1

>  <pIC50>
8.30

$$$$
>  <COMPOUND>
COc1nccc2oc(-c3cnc4ccc(OC[C@H](N)COCc5ccccc5)nn34)cc12

>  <pIC50>
7.77

$$$$
>  <COMPOUND>
COc1nccc2oc(-c3cnc4ccc(OC(CN)Cc5ccccc5)nn34)cc12 (centres unmarked)

>  <pIC50>
7.00

$$$$
>  <COMPOUND>
C[C@H](N)COc1ccc2ncc(-c3cc4ccncc4o3)n2n1

>  <pIC50>
7.59

$$$$
>  <COMPOUND>
CCN(C(=O)OC(C)(C)C)c1nccc2oc(-c3cnc4ccc(OC[C@H](C)N)nn34)cc12

>  <pIC50>
6.60

$$$$
>  <COMPOUND>
COc1nccc2oc(-c3cnc4ccc(O[C@H]5CC[C@H](N)CC5)nn34)cc12

>  <pIC50>
8.00

$$$$
>  <COMPOUND>
CCOc1nccc2oc(-c3cnc4ccc(O[C@H]5C[C@H](N)C5)nn34)cc12

>  <pIC50>
8.40

$$$$
